# target-desc: T1, Hmm-hTFRC (REGN2431), monomeric human transferrin receptor ectodomain with N-terminal hexahistidine-myc-myc … (human, UniProt P02786 89-760)
# T1 construct: also called hmm.hTfR(C89-F763); His-myc-myc-hTFRC ecto
# T1 sequence (P02786 other isoform, or with tags, fused parts or gaps): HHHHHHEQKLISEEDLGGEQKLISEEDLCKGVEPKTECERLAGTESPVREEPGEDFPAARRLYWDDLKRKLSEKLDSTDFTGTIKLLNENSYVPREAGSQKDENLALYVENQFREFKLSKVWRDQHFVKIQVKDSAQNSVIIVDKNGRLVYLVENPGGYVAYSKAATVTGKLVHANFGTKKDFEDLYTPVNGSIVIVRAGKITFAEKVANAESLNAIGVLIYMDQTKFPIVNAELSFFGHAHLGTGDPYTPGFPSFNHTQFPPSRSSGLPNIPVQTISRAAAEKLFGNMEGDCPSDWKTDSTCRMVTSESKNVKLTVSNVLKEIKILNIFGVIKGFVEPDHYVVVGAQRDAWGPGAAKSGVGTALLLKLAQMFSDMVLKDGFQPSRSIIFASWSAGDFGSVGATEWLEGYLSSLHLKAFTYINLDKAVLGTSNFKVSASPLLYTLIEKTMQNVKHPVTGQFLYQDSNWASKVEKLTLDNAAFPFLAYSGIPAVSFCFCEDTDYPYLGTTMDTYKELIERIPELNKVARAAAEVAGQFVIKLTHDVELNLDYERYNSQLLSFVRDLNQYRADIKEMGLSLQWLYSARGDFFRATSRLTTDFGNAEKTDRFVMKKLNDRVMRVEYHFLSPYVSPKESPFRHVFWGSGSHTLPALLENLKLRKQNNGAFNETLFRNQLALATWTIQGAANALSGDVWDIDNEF
# assay-text: blocking ELISA, supernatant; Hmm-hTFRC binding to immobilized human holo-Tf
Measured % Blocking by item
Write it as a number; the unit % goes unstated.

{"columns": ["binder", "% Blocking [%]"],
 "data": [
  ["12808B scFv (VH-VK) (scFv) QLQLQESGPGLVKPSETLSLTCTVSGESISSNTYYWGWIRQPPGKGLEWIGSIDYSGTTNYNPSLKSRVTISVDTSRNHFSLRLRSVTAADTAVYYCAREWGNYGYYYGMDVWGQGTTVTVSSDIQMTQSPSSLSASVGDRVTINCRASQGIRNDLGWYQQKPGKAPKRLIYAASSLQSGVPLRFSGSGSGTEFTLTINNLQPEDFATYYCLSHNSYPWTFGQGTKVEIK", 19]
]}

Now let's try a different one.
Need % Blocking, item 69340 scFv (VK-VH) (scFv, CHO supernatant; Vk-3xG4S-Vh) scFv: EIVLTQSPATLSLSPGERATLSCRASQSVSSYLAWYQQKPGQAPRLLIHDVSNRATGIPARFSGSGSGTDFTLTISSLEPEDFVVYYCQQRSDWPITFGQGTRLEIKGGGGSGGGGSGGGGSEVQLVESGGGLVQPGRSLRLSCAASGFTFDDKAMHWVRQVPGKGLEWISGISWNSGTIGYADSVKGRFIISRDNAKNSLYLQMNSLRAEDTALYYCAKDGDTSGWYWYGLDVWGQGTTVTVSS 13
